The compounds below each have a reported IC50 tested on Mast/stem cell growth factor receptor Kit (Homo sapiens); the values come from various publications.

Some compounds with recorded IC50:
O=C(Nc1ccc(Cl)c(C(F)(F)F)c1)OCc1ccc(-c2cnc(N3CCNCC3)nc2)cc1    0.5 to 5 µM
CC1CN(c2cncnc2)Cc2cc(C(=O)Nc3cc(CN4CCCN(C)CC4)cc(C(F)(F)F)c3)ccc21 (centres unmarked)    > 10 µM
O=C(c1c(F)ccc(NS(=O)(=O)c2ccccc2)c1F)c1c[nH]c2ncc(Cl)cc12    ≤ 10 µM

Query: Give IC50 only, for COc1ccc(C(=O)c2c[nH]c3ncc(-c4cccs4)cc23)c(Cl)c1 , using Mast/stem cell growth factor receptor Kit (Homo sapiens) data.
Result: ≤ 10 µM

Query: Fill: IC50 (Mast/stem cell growth factor receptor Kit (Homo sapiens)) for this compound O=C(c1ccc2cc[nH]c2c1)c1c[nH]c2ncc(OC3CCCC3)cc12
Result: ≤ 10 µM

Query: Answer with IC50 of CC1CN(c2cncnc2)Cc2cc(C(=O)Nc3cc(CN4CCCC4)cc(C(F)(F)F)c3)ccc21 (centres unmarked) measured for Mast/stem cell growth factor receptor Kit (Homo sapiens).
Result: > 10 µM

Query: Specify IC50 for O=C(c1cc(NS(=O)(=O)c2ccc(Cl)cc2)ccc1F)c1c[nH]c2ncccc12 , system Mast/stem cell growth factor receptor Kit (Homo sapiens).
Result: ≤ 10 µM

Query: For Mast/stem cell growth factor receptor Kit (Homo sapiens), give the measured IC50 of the entry CCC(C)S(=O)(=O)Nc1ccc(F)c(C(=O)c2c[nH]c3nccc(Cl)c23)c1F (centres unmarked)
Result: ≤ 10 µM

###

Compiled from multiple publications: IC50 readings for Mast/stem cell growth factor receptor Kit (Homo sapiens).

Use the examples below as a reference point.
COCCOCCOCCOCCOCCOCCOCCN1CCN(Cc2ccc(C(=O)Nc3ccc(C)c(Nc4nccc(-c5cccnc5)n4)c3)cc2)CC1    2500 nM
Cn1cc(-c2cc(Oc3ccc(NC(=O)Nc4noc5ccccc45)c(F)c3)ccn2)cn1    < 100 nM
COc1ccc(Nc2cnc3[nH]ccc3c2)cc1Cl    ≤ 10000 nM

Query: Please report the measured IC50 for COc1ncc(F)cc1CNc1ccc(Cc2c[nH]c3ncnc(O)c23)cn1 tested on Mast/stem cell growth factor receptor Kit (Homo sapiens).
Result: ≤ 10000 nM

Query: For Mast/stem cell growth factor receptor Kit (Homo sapiens), give the measured IC50 of the entry CCCS(=O)(=O)Nc1ccc(F)c(C(=O)c2c[nH]c3ncc(Cl)cc23)c1F
Result: ≤ 10000 nM

Query: Write IC50 of CCOc1ccn(-c2ccc(F)cc2)c(=O)c1C(=O)Nc1cc(F)c(Oc2ccnc(-c3cnn(C)c3)c2)cc1F ; system used: Mast/stem cell growth factor receptor Kit (Homo sapiens)
Result: > 1000 nM

Query: Report IC50 on Mast/stem cell growth factor receptor Kit (Homo sapiens) for this entry: Cn1cc(-c2cnc3[nH]cc(C(=O)c4cccc(NS(=O)(=O)C5CCCCC5)c4)c3c2)cn1
Result: ≤ 10000 nM

Query: Report value: IC50, system: Mast/stem cell growth factor receptor Kit (Homo sapiens), molecule: O=C(Nc1ccc(Oc2ccnc(-c3cn[nH]c3)c2)cn1)N1CCC2(CCC(F)(F)CC2)C1=O
Result: 10.1 nM

###

Literature compilation of pIC50 measurements on Mast/stem cell growth factor receptor Kit (Homo sapiens).
pIC50: −log10 of the molar value.

CS(=O)(=O)c1cccc(-c2cnc3[nH]cc(C(=O)c4cccc(O)c4F)c3c2)c1    ≥ 5.00
Cc1oncc1S(=O)(=O)Nc1cccc(C(=O)c2c[nH]c3ncc(C#N)cc23)c1F    ≥ 5.00
Clc1ccc(COc2ccc(Cc3c[nH]c4ncccc34)c(Cl)c2)cc1    ≥ 5.00

# input for lookup
Query: Tell me pIC50 reported for O=C(Nc1cc(C2=Cc3cnc(NC4COC4)nc3N3CCN=C23)c(Br)cc1F)c1cc(C(F)(F)F)ccn1
Result: > 7.00
